For each entry below, report its IC50 value.
target: UniProt:P11413; test: human G6PD enzyme inhibitors, dose response, selectivity assay for P. falciparum G6PD inhibitor project, biochemical, fluorescence (AID 504792); type: functional
Sequence (P11413 whole entry): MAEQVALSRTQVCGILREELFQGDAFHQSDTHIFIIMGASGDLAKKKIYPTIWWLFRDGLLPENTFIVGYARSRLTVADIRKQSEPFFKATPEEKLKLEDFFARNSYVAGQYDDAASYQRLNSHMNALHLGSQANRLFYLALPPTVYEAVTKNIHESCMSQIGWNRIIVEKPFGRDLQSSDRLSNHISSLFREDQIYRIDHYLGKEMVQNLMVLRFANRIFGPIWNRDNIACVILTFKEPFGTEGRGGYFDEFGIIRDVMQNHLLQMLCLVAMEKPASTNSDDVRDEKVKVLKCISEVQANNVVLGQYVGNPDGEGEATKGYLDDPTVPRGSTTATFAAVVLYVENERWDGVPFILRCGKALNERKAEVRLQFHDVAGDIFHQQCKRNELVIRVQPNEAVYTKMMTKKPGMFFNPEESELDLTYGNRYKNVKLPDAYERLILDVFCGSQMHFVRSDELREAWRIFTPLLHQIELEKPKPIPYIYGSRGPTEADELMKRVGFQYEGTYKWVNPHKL
The source made the active and inactive calls.

Here's what some known entries look like.
[
  {
    "Smiles": "COc1cc(N)c2ncccc2c1SC",
    "Test system": "UniProt:P11413",
    "Value observed": "> 80 µM (inactive)"
  },
  {
    "Smiles": "CCNc1nc(NC(C)C)nc(NS(=O)(=O)c2ccc(Cl)cc2)n1",
    "Test system": "UniProt:P11413",
    "Value observed": "> 80 µM (inactive)"
  },
  {
    "Smiles": "C=CCOc1ccc(CNc2ccc3[nH]c(O)nc3c2)cc1OC",
    "Test system": "UniProt:P11413",
    "Value observed": "53.4 µM (inactive)"
  }
]

Let us examine a further case.
Summary for this molecule, `O=C1C=CC(=O)N1c1ccc(-c2nc3ccccc3o2)cc1` : IC50 is > 80 µM (inactive)

###

system: P388; experiment: cells; assay type: functional; conditions: Mus musculus;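 note: compound exposure lasted 48 hours before growth was measured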
The source made the active and inactive calls.
Result type: GI50

[
  {
    "Compound": "CC(=O)OCC1OC(n2cc(F)c(=O)[nH]c2=O)C(NC(=O)OCc2ccccc2)C(OC(C)=O)C1OC(C)=O (centres undefined)",
    "GI50": "> 100 µM (inactive)"
  }
]

Batch: GI50 for all items listed.
1. Nc1ncnc2c1ncn2[C@@H]1O[C@H](COP(=O)(O)O)[C@@H](O)[C@@H]1O
2. C=C1C(=O)C[C@@]23CCC[C@@]12CC(O)C3 (some centres undefined)
3. Nc1ccc2[nH]c3c(-c4ccccc4)nccc3c2c1

Completion:
> 7.93 µM (inactive)
3.61 µM (inactive)
6.21 µM (inactive)

###

biological target: Cytochrome P450 1A2 (Homo sapiens, UniProt P05177);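 note: PubChem cytochrome P450 panel assay, CYP1A2 panel member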
Sequence (P05177 whole entry): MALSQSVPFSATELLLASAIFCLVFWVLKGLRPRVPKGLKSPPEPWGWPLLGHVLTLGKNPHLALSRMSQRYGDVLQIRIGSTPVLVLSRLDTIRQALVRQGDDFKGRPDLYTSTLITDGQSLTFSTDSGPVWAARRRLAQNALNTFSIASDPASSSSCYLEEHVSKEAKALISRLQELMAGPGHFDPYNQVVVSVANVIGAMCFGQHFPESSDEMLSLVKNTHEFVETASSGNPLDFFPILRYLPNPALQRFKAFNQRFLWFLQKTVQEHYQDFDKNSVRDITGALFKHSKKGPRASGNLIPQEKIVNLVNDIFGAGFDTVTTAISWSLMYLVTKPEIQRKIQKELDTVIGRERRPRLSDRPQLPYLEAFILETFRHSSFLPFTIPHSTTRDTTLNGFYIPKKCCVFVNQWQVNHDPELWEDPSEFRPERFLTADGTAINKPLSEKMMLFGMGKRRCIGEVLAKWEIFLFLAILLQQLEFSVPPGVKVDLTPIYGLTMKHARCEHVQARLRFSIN
Result type: AC50

Worked cases, answers included:
[
  {
    "Compound": "CC(C)[C@@H]1[C@H]2CC[C@H](C2)[C@H]1N",
    "AC50": "31.6 µM (inconclusive)"
  },
  {
    "Compound": "CC[n+]1c(/C=C/Nc2ccccc2)oc2ccccc21",
    "AC50": "15.8 µM (inconclusive)"
  }
]

I'm hoping you can list AC50 for every compound here, please.
1. Cn1cc(-c2nc3cnc(Oc4cccc(Cl)c4)nc3n(C3CC3)c2=O)c2ccccc21
2. CCCCCCCCCC[Si](C)(C)CCC(=O)N[C@@H](Cc1ccc(C)cc1)c1ccccc1
3. COC(=O)[C@@]1(Cc2ccccc2)[C@H]2c3cc(C(=O)N4CCCC4)n(Cc4cccc5ccccc45)c3C[C@H]2CN1C(=O)c1ccccc1
4. N#Cc1ccc(CN2CC[C@@]3(CCCN(C(=O)c4ccncc4)C3)C2)cc1

Completion:
["12.6 µM (inconclusive)", "31.6 µM (inconclusive)", "15.8 µM (inconclusive)", "39.8 µM (inconclusive)"]

###

molecular target: Protein Wnt-3a (Mus musculus); assay: Wnt3a-driven reporter signaling inhibition, dose response, selectivity assay for Gli-SUFU antagonist project, Wnt-LIGHT cells, luminescence (AID 651570); type: functional; settings: read-out: IC50_Mean;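 note: Wnt-LIGHT reporter cells stimulated with conditioned medium from Wnt3a-producing cells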
Sequence (P27467 whole entry): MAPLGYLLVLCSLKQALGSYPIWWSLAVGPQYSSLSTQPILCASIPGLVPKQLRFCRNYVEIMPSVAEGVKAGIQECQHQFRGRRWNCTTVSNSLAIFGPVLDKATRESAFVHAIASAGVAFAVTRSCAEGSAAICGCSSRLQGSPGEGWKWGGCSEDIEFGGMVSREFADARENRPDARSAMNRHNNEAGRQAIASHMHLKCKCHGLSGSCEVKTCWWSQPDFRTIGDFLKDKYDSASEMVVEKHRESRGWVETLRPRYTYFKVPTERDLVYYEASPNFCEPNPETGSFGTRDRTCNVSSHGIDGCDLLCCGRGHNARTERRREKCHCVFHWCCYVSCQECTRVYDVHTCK
Active and inactive are the calls of the source.
Your answer must be one of the following: active, inactive

A selection of reference data follows.
[
  {
    "Molecule": "COC(=O)C1=C(c2cc3ccccc3o2)C[C@@H]2CC[C@H]1N2C(=O)N1CCC(C)CC1",
    "Test system": "Protein Wnt-3a (Mus musculus)",
    "Assigned class": "inactive"
  },
  {
    "Molecule": "COc1ccc(CC(=O)Nc2cccc(S(=O)(=O)N3CCCCCC3)c2)cc1OC",
    "Test system": "Protein Wnt-3a (Mus musculus)",
    "Assigned class": "active"
  },
  {
    "Molecule": "CC1CCN(c2c(NCc3ccc(C(=O)N4c5ccccc5CC4C)cc3)c(=O)c2=O)CC1 (centres undefined)",
    "Test system": "Protein Wnt-3a (Mus musculus)",
    "Assigned class": "active"
  }
]

Could you now look at the following molecule, please?
Prompt: Any idea what this test logged for `CCCCOc1ccc(N2C(N)=NC(N)=NC23CCCCC3)cc1` ?
Completion: active

###

target: Genome polyprotein (dengue virus type 2); assay: Dengue-2 NS5 methyltransferase inhibitors, primary screen, biochemical, confirmation dose response (AID 588689); format: functional
Sequence (P29990 2492-3391 limits assumed): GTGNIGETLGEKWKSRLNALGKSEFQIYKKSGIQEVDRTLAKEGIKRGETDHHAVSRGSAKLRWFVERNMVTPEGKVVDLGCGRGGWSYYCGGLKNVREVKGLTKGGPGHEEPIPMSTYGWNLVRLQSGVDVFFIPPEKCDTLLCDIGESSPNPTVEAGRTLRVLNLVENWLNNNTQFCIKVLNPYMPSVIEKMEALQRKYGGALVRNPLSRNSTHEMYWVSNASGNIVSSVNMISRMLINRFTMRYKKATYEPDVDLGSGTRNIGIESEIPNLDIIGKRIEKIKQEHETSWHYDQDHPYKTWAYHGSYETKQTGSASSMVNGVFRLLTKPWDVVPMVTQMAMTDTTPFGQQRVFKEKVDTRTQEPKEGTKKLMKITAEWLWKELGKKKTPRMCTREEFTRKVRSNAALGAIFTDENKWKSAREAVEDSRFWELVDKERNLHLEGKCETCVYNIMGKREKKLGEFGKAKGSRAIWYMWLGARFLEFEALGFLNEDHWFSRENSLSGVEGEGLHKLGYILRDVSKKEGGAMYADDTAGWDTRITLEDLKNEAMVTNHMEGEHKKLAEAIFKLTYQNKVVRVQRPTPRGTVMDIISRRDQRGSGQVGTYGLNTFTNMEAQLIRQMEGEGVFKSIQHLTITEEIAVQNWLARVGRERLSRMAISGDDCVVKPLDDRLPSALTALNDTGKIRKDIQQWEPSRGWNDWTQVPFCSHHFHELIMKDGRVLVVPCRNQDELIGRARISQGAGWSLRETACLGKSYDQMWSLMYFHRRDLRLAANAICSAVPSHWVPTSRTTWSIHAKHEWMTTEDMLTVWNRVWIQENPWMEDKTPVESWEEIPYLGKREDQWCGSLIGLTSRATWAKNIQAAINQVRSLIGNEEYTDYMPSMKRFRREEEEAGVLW
The source made the active and inactive calls.
For each of the compounds below, state its IC50.

State recorded IC50 for all listed compounds.
1. O=C(CCN1C(=O)/C(=C\C=C\c2ccccc2)SC1=S)Nc1ccccc1C(=O)O
2. O=C(O)COc1ccccc1/C=N/Nc1ccc(S(=O)(=O)Nc2ccc(Cl)cc2)cc1[N+](=O)[O-]
3. CSc1nnc(NC(=O)c2nc(S(=O)(=O)Cc3cccc(C)c3)ncc2Cl)s1

Completion:
["64.3 µM (active)", "36.7 µM (active)", "44.5 µM (active)"]

###

target: Large T antigen (Simian virus 40, UniProt P03070); format: functional, Betapolyomavirus macacae;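 note: Confirmatory-stage PubChem screen for compounds that inhibit SV40 T antigen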
Sequence (P03070 whole entry): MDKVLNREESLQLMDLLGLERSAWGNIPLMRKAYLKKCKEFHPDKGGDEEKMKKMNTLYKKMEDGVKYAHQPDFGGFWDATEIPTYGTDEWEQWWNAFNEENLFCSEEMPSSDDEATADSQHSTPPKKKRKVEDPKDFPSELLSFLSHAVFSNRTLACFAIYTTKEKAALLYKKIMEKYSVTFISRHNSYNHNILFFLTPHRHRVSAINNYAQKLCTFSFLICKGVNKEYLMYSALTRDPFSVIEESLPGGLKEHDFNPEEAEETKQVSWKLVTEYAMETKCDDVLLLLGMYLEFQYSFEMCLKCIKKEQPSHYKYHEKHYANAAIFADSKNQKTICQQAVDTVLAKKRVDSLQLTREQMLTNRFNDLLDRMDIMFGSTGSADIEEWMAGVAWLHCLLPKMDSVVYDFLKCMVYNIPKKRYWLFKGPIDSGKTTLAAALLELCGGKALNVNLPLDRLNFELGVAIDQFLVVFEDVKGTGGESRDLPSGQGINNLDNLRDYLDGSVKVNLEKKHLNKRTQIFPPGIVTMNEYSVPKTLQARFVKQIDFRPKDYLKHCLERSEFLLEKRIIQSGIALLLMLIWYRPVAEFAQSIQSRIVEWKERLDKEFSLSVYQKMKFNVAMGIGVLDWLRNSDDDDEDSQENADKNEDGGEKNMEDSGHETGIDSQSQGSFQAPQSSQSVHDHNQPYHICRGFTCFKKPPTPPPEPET
The source made the active and inactive calls.
Result type: IC50

Give me IC50 for each of these compounds, listed below.
1. O=C1/C(=C/C=C/c2ccco2)SC(=S)N1NS(=O)(=O)c1ccccc1
2. CCCCn1nnnc1SCC(=O)Nc1ccc(N(C)C)cc1
3. CN(C(=O)c1ccccc1C(=O)OCC(=O)NCc1cccs1)C1CCCCC1

Completion:
25.4 µM (active)
11.2 µM (active)
> 100 µM (active)

###

biological target: Low molecular weight phosphotyrosine protein phosphatase (Homo sapiens, UniProt P24666); assay type: functional; details: read-out: IC50_Mean;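 note: Dose-response confirmation assay measuring inhibition of LMPTP enzyme activity by fluorescence intensity read-out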
Sequence (P24666 whole entry): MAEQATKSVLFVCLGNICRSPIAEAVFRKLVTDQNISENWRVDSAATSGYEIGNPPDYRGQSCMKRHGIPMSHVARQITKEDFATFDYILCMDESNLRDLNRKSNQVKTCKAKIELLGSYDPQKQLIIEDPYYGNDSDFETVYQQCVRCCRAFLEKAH
The source made the active and inactive calls.
Classes to choose from: T for active, F for inactive

Examples from the recorded data:
[
  {
    "Smiles": "O=C(Cc1cn2ccsc2n1)Nc1nc2c(s1)CN(Cc1ccccc1)CC2",
    "Assigned class": "F"
  },
  {
    "Smiles": "O=C(CSc1nc(-c2ccccc2)nc2ccc(F)cc12)Nc1ccc(C(=O)O)cc1",
    "Assigned class": "F"
  }
]

Prompt: # lookup: test call for `Cc1ccc(-c2nc(NC(=O)CSc3cc(C)c4ccccc4n3)ns2)cc1`
Completion: T

Prompt: Write down the call the test reported for this compound. Item: `O=C(/C=C/c1cccc([N+](=O)[O-])c1)Nc1ccc(NC(=O)c2cccs2)cc1`
Completion: F

###

target: Methionyl-tRNA synthetase, putative (Trypanosoma brucei brucei); type: functional, Trypanosoma brucei brucei strain 927/4 GUTat10.1
Sequence (Q38C91 whole entry): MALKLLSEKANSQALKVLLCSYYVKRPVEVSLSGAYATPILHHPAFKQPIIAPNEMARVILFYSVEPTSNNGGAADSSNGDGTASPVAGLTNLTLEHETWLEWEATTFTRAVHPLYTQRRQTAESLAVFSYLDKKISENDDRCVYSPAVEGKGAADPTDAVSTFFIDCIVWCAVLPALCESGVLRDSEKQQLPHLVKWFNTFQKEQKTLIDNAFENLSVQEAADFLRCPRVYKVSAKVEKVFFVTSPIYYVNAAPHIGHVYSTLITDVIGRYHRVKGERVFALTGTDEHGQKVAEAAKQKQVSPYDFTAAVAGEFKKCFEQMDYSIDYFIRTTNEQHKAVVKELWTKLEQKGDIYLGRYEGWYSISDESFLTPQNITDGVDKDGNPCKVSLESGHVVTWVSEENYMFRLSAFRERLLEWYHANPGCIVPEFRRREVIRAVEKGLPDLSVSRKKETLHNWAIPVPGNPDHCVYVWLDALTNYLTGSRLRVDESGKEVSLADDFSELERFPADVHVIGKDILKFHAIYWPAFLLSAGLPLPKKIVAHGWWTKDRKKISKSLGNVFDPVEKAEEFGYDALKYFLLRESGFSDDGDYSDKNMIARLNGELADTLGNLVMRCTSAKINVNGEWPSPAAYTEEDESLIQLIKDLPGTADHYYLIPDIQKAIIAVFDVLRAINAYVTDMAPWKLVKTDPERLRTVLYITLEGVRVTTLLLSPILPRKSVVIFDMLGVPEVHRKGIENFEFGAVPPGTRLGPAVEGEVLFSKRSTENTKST
The source made the active and inactive calls.
Pick one and only one: active, inactive

Worked set:
[
  {
    "Compound": "O=C(OC(C(=O)c1c[nH]c2ccccc12)c1ccccc1)c1cnccn1 (stereo not given)",
    "Assigned class": "inactive"
  },
  {
    "Compound": "O=C(NCCCCc1ccccc1)Nc1ccc(F)cc1",
    "Assigned class": "inactive"
  },
  {
    "Compound": "CN(C)S(=O)(=O)c1cccc(NC(=O)c2ccc(-n3cncn3)c([N+](=O)[O-])c2)c1",
    "Assigned class": "active"
  },
  {
    "Compound": "O=C(Cn1cnc2ccccc21)Nc1cccc([N+](=O)[O-])c1",
    "Assigned class": "active"
  }
]

Shifting focus to the compound that follows.
Prompt: Please let me know the test result on file for `COc1ccc2[nH]c3nc(SCC(=O)Nc4ccc5c(c4)OCO5)nnc3c2c1` .
Completion: active

###

molecular target: Replicative DNA helicase DnaB (Mycobacterium tuberculosis); experiment: DnaB intein splicing inhibitors, dose response, biochemical, cell-free fluorescence (AID 449749); assay type: functional
Sequence (P9WMR3 1-399, added parts left off): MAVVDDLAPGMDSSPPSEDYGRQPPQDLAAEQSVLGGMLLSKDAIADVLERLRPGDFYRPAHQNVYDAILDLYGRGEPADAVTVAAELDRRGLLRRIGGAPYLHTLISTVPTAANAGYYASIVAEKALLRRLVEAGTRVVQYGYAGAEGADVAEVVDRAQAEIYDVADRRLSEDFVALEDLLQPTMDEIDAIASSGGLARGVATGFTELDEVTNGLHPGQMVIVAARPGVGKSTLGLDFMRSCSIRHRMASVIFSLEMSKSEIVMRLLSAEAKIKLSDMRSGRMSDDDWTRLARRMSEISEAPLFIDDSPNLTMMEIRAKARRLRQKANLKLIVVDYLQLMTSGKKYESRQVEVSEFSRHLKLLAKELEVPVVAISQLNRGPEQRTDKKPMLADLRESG
The source made the active and inactive calls.
Log the outcome using a class from active, inactive

Worked examples follow.
[
  {
    "Molecule": "Cc1ccsc1/C=N/NC(=O)Cc1cc(O)[nH]n1",
    "Assigned class": "active"
  },
  {
    "Molecule": "CC(/C=N/NC(=O)Cc1cc(O)[nH]n1)=C\\c1ccccc1",
    "Assigned class": "active"
  },
  {
    "Molecule": "Cc1cc(C(=O)CCl)c(C)n1CC1COc2ccccc2O1 (centres undefined)",
    "Assigned class": "active"
  },
  {
    "Molecule": "CCOC(=O)c1c(NC(=O)c2ccco2)n(C2CCCCC2)c2nc3ccccc3nc12",
    "Assigned class": "active"
  },
  {
    "Molecule": "Cc1ccc(C2CC(c3cccs3)=NN2C(=O)CSC2=NCCS2)cc1 (centres undefined)",
    "Assigned class": "active"
  }
]

Prompt: Test call for this molecule, please: `O=C(Cc1cc(O)n[nH]1)N/N=C/c1ccccc1[N+](=O)[O-]`
Completion: active

Prompt: How was Cc1nn(-c2ccccc2)c2c1C(c1ccc(F)cc1F)C(C#N)=C(N)O2 (centres undefined) classified in this test?
Completion: active

Prompt: Dear all, I need the recorded test outcome for `CCOc1ccc(CN(C)C(=O)CCl)cc1` , thank you.
Completion: inactive

Prompt: Hi, sorry to bother you, what did the test record for COc1ccc(C2C(O)C(c3c[nH]c4ccccc34)=NN2C(=O)CCl)cc1 (centres undefined) ?
Completion: active
